TEST_METHOD_NOTES: P-glycoprotein substrates identified in KB-8-5-11 adenocarcinoma cell line, qHTS therapeutic library screen (AID 1346987); also: nearly all actives have a fitted effect of over 65% in size
PARTICULARS: KB-8-5-11 (P-gp overexpressing) viability, CellTiter-Glo, 72 h; series mostly up to 44.5 µM
Results filed as inconclusive are left out. Activity calls are given as the source filed them. Calls follow the shape of the dose curve; as a rule, active = well fitted inhibition curve with a large enough effect; inconclusive = small, poorly fitted or top-dose-only effect; inactive = flat fitted curve, though single readings scatter.
One label from this list, please: Y = active, N = inactive

Req: State the result this test recorded for `O=C(O)C(Cl)Cl` .
Resp: N

Req: State the result this test recorded for `CCOCCOC(C)=O` .
Resp: N

Req: State the result this test recorded for `CCOC(=O)Nc1ccc(NCc2ccc(F)cc2)cc1N` .
Resp: N

Req: State the result this test recorded for `ClC1=C(Cl)[C@]2(Cl)[C@@H]3[C@@H]4C[C@@H]([C@H]5O[C@@H]45)[C@@H]3[C@@]1(Cl)C2(Cl)Cl` .
Resp: N

Req: State the result this test recorded for `CC=C(C)C(=O)O[C@H]1C(C)=C2[C@@H]3OC(=O)[C@@](C)(O)[C@@]3(O)[C@@H](OC(=O)CCC)C[C@](C)(OC(C)=O)[C@@H]2[C@@H]1OC(=O)CCCCCCC` .
Resp: Y

====

System: ATS95
TEST_METHOD_NOTES: qHTS profiling for inhibitors of Plasmodium falciparum proliferation (AID 504749); also: nearly all actives have a fitted effect of over 60% in size
PARTICULARS: P. falciparum in erythrocytes, SYBR Green DNA, 72 h; series mostly up to 28.7 µM
Inconclusive results are not listed. Calls of active or inactive are those of the source. The call rests on the fitted dose curve; in most records, active means well fitted inhibition curve with a large enough effect; inconclusive means small, poorly fitted or top-dose-only effect; inactive means flat fitted curve, though single readings scatter.
One label from this list, please: label 1 for active, label 0 for inactive

Req: State the result this test recorded for `CCCN1CCC[C@H](c2cccc(O)c2)C1` .
Resp: label 0

Req: State the result this test recorded for `CC(=O)[O][Hg][c]1ccccc1` .
Resp: label 1

Req: State the result this test recorded for `CCCCc1ccc(C(=O)O)nc1` .
Resp: label 0

====

System: MKL-2
TEST_METHOD_NOTES: qHTS assay to identify novel small-molecules to repurpose for Merkel cell carcinoma treatment (AID 1296009); also: nearly all actives have a fitted effect of over 60% in size
PARTICULARS: MCC and control cell lines, CellTiter-Glo viability, 72 h; series mostly up to 46 µM
Records with an inconclusive call do not appear. Activity calls are given as the source filed them. The call rests on the fitted dose curve; in most records, active means well fitted inhibition curve with a large enough effect; inconclusive means small, poorly fitted or top-dose-only effect; inactive means flat fitted curve, though single readings scatter.
One label from this list, please: active, inactive

Req: State the result this test recorded for NC1CC1c1ccccc1 (stereo not drawn) .
Resp: inactive

Req: State the result this test recorded for `COC[C@H]1OC(=O)c2coc3c2[C@@]1(C)C1=C(C3=O)[C@@H]2CC[C@H](O)[C@@]2(C)C[C@@H]1OC(C)=O` .
Resp: active

Req: State the result this test recorded for `CCOC(=O)c1c(C(C#N)=CN)c2ccc(Cl)c(Cl)c2n1C` .
Resp: inactive

Req: State the result this test recorded for CC(N[C@H]1C[C@H]1c1ccccc1)c1ccc2c(c1)OCCO2 (stereo partly drawn) .
Resp: inactive

Req: State the result this test recorded for `O=[N+]([O-])c1ncc[nH]1` .
Resp: inactive

Req: State the result this test recorded for `CC(=O)[O][Hg][c]1ccccc1` .
Resp: active

Req: State the result this test recorded for `CO/C=C(/C(=O)OC)c1ccccc1Oc1cc(Oc2ccccc2C#N)ncn1` .
Resp: active

Req: State the result this test recorded for `O=S(=O)(F)Cc1ccccc1` .
Resp: inactive

Req: State the result this test recorded for `O=C1C(I)=CC(=C(c2cc(I)c(O)c(I)c2)c2ccccc2C(=O)O)C=C1I` .
Resp: inactive

Req: State the result this test recorded for `CCCCCC[C@H]1C(=O)O[C@H](C)[C@H](NC(=O)c2cccc(NC=O)c2O)C(=O)O[C@@H](C)[C@@H]1OC(=O)CC(C)C` .
Resp: active

Req: State the result this test recorded for `C[C@]12Cc3cn[nH]c3C[C@@H]1CC[C@@H]1[C@H]2CC[C@@]2(C)[C@H]1CC[C@]2(C)O` .
Resp: inactive

Req: State the result this test recorded for `Nc1ccc(Cl)cc1` .
Resp: inactive

Req: State the result this test recorded for `CCCCCCCCCCCCCCCC[N+](C)(C)C` .
Resp: active

====

TEST_METHOD_NOTES: Quantitative High-Throughput drug screen in 47 multiple myeloma cell lines against the NCATS MIPE library collection: OCIMY5_PLB cell viability assay (AID 1918988); also: potency is read from the fitted curve at half-maximal effect; nearly all actives have a fitted effect of over 65% in size
PARTICULARS: OCI-MY5 myeloma viability, ATP luminescence, 48 h; series mostly up to 45.8 µM
Results filed as inconclusive are left out. Active and inactive are the calls of the source. Calls follow the shape of the dose curve; as a rule, active = well fitted cell-killing curve with a large enough effect; inconclusive = small, poorly fitted or top-dose-only effect, or effect the other way; inactive = no such curve, though single readings can be large or run the other way.
METRIC: Potency

Req: Identify Potency associated with the molecule CN1[C@H]2CC(O)C[C@H]1[C@H]1O[C@H]12 (stereo not given in full)
Resp: 18700 nM (active)

Req: Identify Potency associated with the molecule `CC1=C(O)C(=O)C=C2C1=CC=C1[C@@]2(C)CC[C@@]2(C)[C@@H]3C[C@](C)(C(=O)O)CC[C@]3(C)CC[C@]12C`
Resp: 296 nM (active)

Req: Identify Potency associated with the molecule `COc1ccc2c(c[n+](C)c3c4cc5c(cc4ccc23)OCO5)c1OC`
Resp: 2090 nM (active)

Req: Identify Potency associated with the molecule `C[C@@H]1CC[C@@]2(OC1)O[C@H]1C[C@H]3[C@@H]4CC=C5C[C@@H](O[C@@H]6O[C@H](CO)[C@@H](O[C@@H]7O[C@@H](C)[C@H](O)[C@@H](O)[C@@H]7O)[C@H](O)[C@@H]6O[C@@H]6O[C@@H](C)[C@H](O)[C@@H](O)[C@@H]6O)CC[C@]5(C)[C@@H]4CC[C@]3(C)[C@@H]1[C@H]2C`
Resp: 1660 nM (active)

====

PARTICULARS: Ebola virus entry assay, reporter ratio channel; Channel type: primary
Activity calls are given as the source filed them.
METRIC: AC50

{"columns": ["SMILES_DATA", "METRIC", "DATA_VALUE"],
 "data": [
  ["ClC1=C(Cl)[C@]2(Cl)[C@@H]3[C@@H]4C[C@@H]([C@H]5O[C@@H]45)[C@@H]3[C@@]1(Cl)C2(Cl)Cl", "AC50", "5.62 µM (active)"],
  ["Cc1cccc(C)c1NC(=O)c1ccc(N)cc1", "AC50", "inactive"],
  ["C=CC(=O)NCNC(=O)C=C", "AC50", "inactive"]
]}

====

TEST_METHOD_NOTES: Quantitative High-Throughput drug screen in 47 multiple myeloma cell lines against the NCATS MIPE library collection: OCIMY1_PLB cell viability assay (AID 1918979); also: nearly all actives have a fitted effect of over 35% in size; also: potency is read from the fitted curve at half-maximal effect;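 as to viability: 100% = DMSO-only wells and 0% = cell-free media-only wells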
PARTICULARS: OCI-MY1 myeloma viability, CellTiter-Glo ATP, 48 h; series mostly up to 45.8 µM
Results filed as inconclusive are left out. Calls of active or inactive are those of the source. Calls come from the whole dose curve; as a rule, active = well fitted cell-killing curve with a large enough effect; inconclusive = small, poorly fitted or top-dose-only effect, or effect the other way; inactive = no such curve, though single readings can be large or run the other way.
METRIC: Potency

Below, each entry is followed by its recorded Potency result.
{"columns": ["COMPOUND", "DATA_VALUE"],
 "data": [
  ["CC(C)[C@H]1C(=O)N[C@H](CO)Cc2c[nH]c3cccc(c23)N1C", "inactive"],
  ["COc1ccc2c(c1)CN(C)CC2c1ccc(Cl)c(Cl)c1 (configuration not stated)", "inactive"],
  ["C1=C2CCCN[C@H]2[C@@H]2C[C@H]1[C@@H]1CCCCN1C2", "inactive"],
  ["CC(=O)OCC1=C(C(=O)O)N2C(=O)[C@@H](N)[C@@H]2SC1", "inactive"]
]}

Req: Identify Potency associated with the compound `O=c1[nH]c2ccc(Cl)cc2c(N[C@@H]2CN3CCC2CC3)c1-c1nc2ccccc2[nH]1`
Resp: 4.69 µM (active)

Req: Identify Potency associated with the compound `C[C@]12CC[C@@H]3[C@@H](CCC4=CC(=O)CC[C@@H]43)[C@@H]1CC[C@@H]2OC(=O)CCc1ccccc1`
Resp: inactive

Req: Identify Potency associated with the compound `O=c1cccc2n1CC1CNC[C@H]2C1`
Resp: inactive

====

Assign viability (% of control) to each entry below.
TEST_METHOD_NOTES: High-throughput drug toxicity screening in the BPDCN cell line Cal-1 (AID 1224825);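 also: cells exposed to compounds for 48 h; 100% = DMSO and 0% = bortezomib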
PARTICULARS: Cal-1 BPDCN cell viability, qHTS; at 45.8 µM (top of the series)
Write it as a number; the unit % goes unstated.

Req: Identify viability (% of control) associated with the compound `CC(C)[C@]12O[C@@H]1[C@@H]1O[C@]13[C@]1(O[C@H]1C[C@@H]1C4=C(CC[C@@]13C)C(=O)OC4)[C@H]2O`
Resp: 2.1

Req: Identify viability (% of control) associated with the compound `Oc1ccc2c3c1O[C@H]1c4[nH]c5c(c4C[C@@]4(O)[C@@H](C2)N(CC2CC2)CC[C@]314)C[C@@]1(O)[C@H]2Cc3ccc(O)c4c3[C@@]1(CCN2CC1CC1)[C@H]5O4`
Resp: 119

Req: Identify viability (% of control) associated with the compound `O=[N+]([O-])c1ncc[nH]1`
Resp: 122

Req: Identify viability (% of control) associated with the compound `Cc1c(C(=O)Nc2cccc(C(F)(F)F)c2)cc(-c2ccccc2)n1CCCN1CCOCC1`
Resp: 37.9

Req: Identify viability (% of control) associated with the compound `CCc1c(C(=O)C(N)=O)c2c(OCC(=O)O)cccc2n1Cc1ccccc1`
Resp: 115

Req: Identify viability (% of control) associated with the compound `O=C(Nc1ccncc1)C(=O)c1cn(Cc2ccc(Cl)cc2)c2ccccc12`
Resp: 16.2

Req: Identify viability (% of control) associated with the compound `CN[C@@H]1Cc2cccc3[nH]c(=O)n(c23)C1`
Resp: 119

Req: Identify viability (% of control) associated with the compound CCC(=O)OC1CCC2C3CCC4=CC(=O)CC[C@@]4(C)C3CC[C@]12C (some centres undefined)
Resp: 105

Req: Identify viability (% of control) associated with the compound `O=c1cccc2n1CC1CNC[C@H]2C1`
Resp: 13.3

Req: Identify viability (% of control) associated with the compound `CCCCCC[C@H]1C(=O)O[C@H](C)[C@H](NC(=O)c2cccc(NC=O)c2O)C(=O)O[C@@H](C)[C@@H]1OC(=O)CC(C)C`
Resp: 85.6

Req: Identify viability (% of control) associated with the compound `C[C@@H]1O[C@@H](O[C@@H]2C=C3CC[C@@H]4[C@@H](CC[C@]5(C)[C@H](c6ccc(=O)oc6)CC[C@@]45O)[C@@]3(C)CC2)[C@H](O)[C@H](O)[C@H]1O`
Resp: 3.76

Req: Identify viability (% of control) associated with the compound `C[C@](O)(COc1ccc(C#N)cc1)C(=O)Nc1ccc(C#N)c(C(F)(F)F)c1`
Resp: 99.4

Req: Identify viability (% of control) associated with the compound `C[C@H]([C@H](O)CCC(C)(C)O)[C@H]1CC[C@@]2(O)C3=CC(=O)[C@@H]4C[C@@H](O)[C@@H](O)C[C@]4(C)[C@@H]3CC[C@]12C`
Resp: 110

Req: Identify viability (% of control) associated with the compound `CCOC(=O)c1cncn1[C@H](C)c1ccccc1`
Resp: 105

Req: Identify viability (% of control) associated with the compound `C[C@@H]1[C@H](O)[C@@H](C)C=CC=CCCC=CC=CC=CC=C[C@H](O[C@H]2O[C@@H](C)[C@H](O)[C@@H](N)[C@@H]2O)CC2O[C@](O)(C[C@@H](O)[C@H](O)CC[C@@H](O)C[C@@H](O)C[C@@H](O)CC(=O)O[C@H]1C)C[C@H](O)[C@H]2C(=O)O`
Resp: 124

Req: Identify viability (% of control) associated with the compound `C1=C2CCCN[C@H]2[C@@H]2C[C@H]1[C@@H]1CCCCN1C2`
Resp: 105

Req: Identify viability (% of control) associated with the compound `CC(C)(O)C(=O)Nc1ccc([N+](=O)[O-])c(C(F)(F)F)c1`
Resp: 14.7

Req: Identify viability (% of control) associated with the compound `COC1=C[C@@H]2[C@@H]3Cc4ccc(OC)c(O)c4[C@]2(CCN3C)CC1=O`
Resp: 12.3

Req: Identify viability (% of control) associated with the compound NC1CC1c1ccccc1 (centres undefined)
Resp: 95.2

Req: Identify viability (% of control) associated with the compound `O=c1[nH]c2ccc(Cl)cc2c(N[C@@H]2CN3CCC2CC3)c1-c1nc2ccccc2[nH]1`
Resp: 2.3

Req: Identify viability (% of control) associated with the compound C[C@H]1CCCC=CC2C[C@H](O)C[C@@H]2[C@H](O)C=CC(=O)O1 (some centres undefined)
Resp: 4

Req: Identify viability (% of control) associated with the compound CC(=CCCC1=CCC(C2=CC(=O)OC2O)OC1O)CCC1=C(C)CCCC1(C)C (centres undefined)
Resp: 103

Req: Identify viability (% of control) associated with the compound `Clc1ccccc1C(c1ccccc1)(c1ccccc1)n1cccn1`
Resp: 108

Req: Identify viability (% of control) associated with the compound `CN1CCN(c2ccc([N+](=O)[O-])c3no[n+]([O-])c23)CC1`
Resp: 4.53
